Sourced from the supplement of paper PMC9732359

- measurement-protocol: protein stability index of a GFP-peptide fusion (yeast GPS) (PSI 1-4); higher = more stable; sorted into four equal gates, so the index is relative within each strain
- recorded-conditions: doa10∆
The following sequences are shown together with reported protein stability index values.
quantity-measured: protein stability index

{"columns": ["sequence-entry", "quantity-measured", "value-measured"],
 "data": [
  ["EGLTYKYPARRIHTNDN [SSN3]", "protein stability index", 2.78],
  ["PSRRERRREQTTYSVDD [ISW2]", "protein stability index", 2.65],
  ["AHIAKNLINLSIGASIA [YCS4]", "protein stability index", 1.34],
  ["IRVAETRGGASALIENN [YJL039C/NUP192]", "protein stability index", 2.39],
  ["YKVMHQIRACKDLKHII [PRP8]", "protein stability index", 2.27],
  ["QLESIYFRILLPYERHM [SWI1]", "protein stability index", 1.88],
  ["LGKRSILAAAHRDAYSG [PRE2]", "protein stability index", 2.93]
]}

###

- measurement-protocol: protein stability index of a GFP-peptide fusion (yeast GPS) (PSI 1-4); higher = more stable; sorted into four equal gates, so the index is relative within each strain
- recorded-conditions: doa10∆
Quick rule: protein stability index of at least 2 means Satisfied, below that means Not satisfied.

{"columns": ["sequence-entry", "category-label"],
 "data": [
  ["RGFIKSEGSGSSLVQKG [RPC53]", "Satisfied"],
  ["TQRIMTNVIAFAFWNLL [YLR018C/POM34]", "Not satisfied"],
  ["GKVVGDKWESYLNLLQE [RPB10]", "Satisfied"],
  ["DDISRQVARTNLDGTKA [ROX3]", "Satisfied"],
  ["DRKNRAPPQRPRFNREN [RPS26A]", "Satisfied"],
  ["LYENIASSPIILEEGSS [RPN10]", "Satisfied"],
  ["TGTARLNSMPNNVNEYS [YJL039C/NUP192]", "Satisfied"],
  ["DPDLGLDLMFDEVYVQN [YJL039C/NUP192]", "Satisfied"],
  ["MGVIKKKRSHHGKASRQ [SNF6]", "Satisfied"],
  ["KTIVTGGNGPEDFQQHE [RPO26]", "Satisfied"],
  ["KNNILGSNVLKSGKTIV [RRP43]", "Satisfied"],
  ["DEDWSVRIDKALELDDT [ECM29]", "Satisfied"],
  ["RTPDSISVNSSSFSLTF [POP1]", "Satisfied"],
  ["NENEDEDEGTLNVAEII [ARP9]", "Satisfied"],
  ["KEAFEEEIKQSARNYDK [SMC1]", "Satisfied"],
  ["SVINVSAQRDRRYRKRV [RPS17A]", "Satisfied"],
  ["KQFDSIFNSNKAKIIPG [SIR4]", "Satisfied"],
  ["NFLIKLSELSPGIMLRQ [YCS4]", "Satisfied"],
  ["MYPSPTGVMIGIDLAYN [PRP8]", "Satisfied"],
  ["PKDFSPNFTGIDKLMLS [SSN2]", "Not satisfied"],
  ["RKHHKKGITEEVAKKRS [RPL24A]", "Satisfied"],
  ["HTSIRETLENGETRMKM [SMC2]", "Satisfied"],
  ["TISSLFVQLCEMGYLIQ [RPC82]", "Not satisfied"],
  ["NLATWYHSAGGRDKHAL [SSN3]", "Satisfied"],
  ["MNNETSGKETASAPLCS [DLS1]", "Satisfied"],
  ["DEAEGRFEVINNETEQL [SMC1]", "Satisfied"],
  ["ICYNKKTEYVLNDLNHL [REC8]", "Not satisfied"],
  ["GTVSRVNRLLSVIPLKG [RRP4]", "Not satisfied"],
  ["KRAEKKAKERLQALKAN [SNF2]", "Satisfied"],
  ["ACSSSGRETILSNFNAD [SIR3]", "Satisfied"],
  ["DLYHFALNYENEAGRKL [SNF2]", "Satisfied"],
  ["QLEKKIRFVCLSNCLAN [BRR2]", "Not satisfied"],
  ["PCLRKYEEFRDVAIENN [RRP43]", "Satisfied"],
  ["KSIQDIVGLATLIVNTD [SRP21]", "Satisfied"],
  ["TRLPAFERPAVKEEKED [RPC53]", "Satisfied"],
  ["GVAMNPVDHPHGGGNHQ [RPL2A]", "Satisfied"],
  ["GVVRYVMESGAKGCEVV [RPS3]", "Not satisfied"],
  ["LLTNDESAFENLMGNRN [SNF12]", "Satisfied"],
  ["IHYSWSFILYYRRALQS [YML103C/NUP188]", "Not satisfied"],
  ["LKTFHFAGVASMNVTLG [RPO31]", "Satisfied"],
  ["LKQEGAANKTVVVVGTV [RPL18A]", "Satisfied"],
  ["VSITPGKIEKIAQSKKK [SRP21]", "Not satisfied"],
  ["KTTPNTASSEASAGSKE [YMR153W/NUP53]", "Satisfied"],
  ["IPSPLSSTKPPGSVNSA [NUT1]", "Satisfied"],
  ["ALPDVVVKGLPDISRAV [RPO31]", "Satisfied"],
  ["EEIFFKSVRILKNKAEY [RPC40]", "Satisfied"],
  ["PLKLSGEGPFTVKFKHM [YMR129W/POM152]", "Satisfied"],
  ["SKKTSPKATSSAGAVFK [YOR098C/NUP1]", "Satisfied"],
  ["KMENLMRLIKRVRAESL [YJL039C/NUP192]", "Not satisfied"],
  ["NVRSSVLQKVIEWAEHH [SKP1]", "Satisfied"],
  ["LAVEDKPSPIDSGIGSN [CSL4]", "Satisfied"],
  ["EARFDVLITSYEMVIRE [ISW2]", "Not satisfied"],
  ["MSDHSLDKLNCAINSKS [RRP6]", "Satisfied"],
  ["VEGISEVQARKSKSVSF [RPT5]", "Satisfied"],
  ["SRKETSRTATWLKNKFA [BRR2]", "Not satisfied"],
  ["IDNGAESSENEAEDDDN [RPC53]", "Satisfied"],
  ["DGTSTEKTFLHLPCTIE [RPN8]", "Satisfied"],
  ["ERSDLLPYLSDTCAVSF [YJR042W/NUP85]", "Satisfied"],
  ["ITHYAVRGGNIEIMGIL [RRI1]", "Satisfied"]
]}
